Below: a set of entries, each annotated with reported GI50.
- Tested on: SW-620 colon
- measurementNotes: NCI tumour cell line growth inhibition, 48 h

Guide cases for GI50, answers given:
What does the record list as GI50 for COc1ccc(/C(C)=C(\c2ccc(OCCN3CCCCCC3)cc2)c2ccc(OC(=O)C3CCCCC3)cc2)cc1 ?
0.948 µM

What does the record list as GI50 for CC(C)[C@H](O)C(=O)N[C@@H](C)C(=O)N[C@@H]1C(=O)N(C)CCc2ccccc21 ?
> 100 µM

What does the record list as GI50 for O=C(O)c1cccc(COc2ccc([N+](=O)[O-])cc2Cl)c1 ?
> 100 µM

What does the record list as GI50 for ClCCN(CCCl)c1ccc(CNc2ccccc2)cc1 ?
10.6 µM

What does the record list as GI50 for CC1(C)CN=C(NN=C(/C=C/c2ccc(C(F)(F)F)cc2)/C=C/c2ccc(C(F)(F)F)cc2)NC1 ?
1.14 µM

***
What does the record list as GI50 for CCCCCCCCCCNC(=O)CI ?
1.77 µM

What does the record list as GI50 for O=C1CCCN1c1ccccc1I(=O)=O ?
> 100 µM

What does the record list as GI50 for COC(=O)c1cc2c(o1)-c1nccc3c1c(nc1ccccc13)C2=O ?
3.78 µM

What does the record list as GI50 for c1ccc2c(c1)[nH]c1c2cc[n+]2cc3c(cc12)CCCC3 ?
2.35 µM

What does the record list as GI50 for Nc1ccccc1O.O.O=C(O)C1[O][Sb][O]C1C(=O)O (configuration not stated) ?
4.48 µM

What does the record list as GI50 for Cc1cc(Nc2nc(-c3cn(-c4ccc(Cl)cc4)nn3)nc3ccccc23)n[nH]1 ?
12.5 µM

What does the record list as GI50 for C#CCOc1cccc(Nc2ncnc3c(NC(=O)C=C)cccc23)c1 ?
25.8 µM

----------
- Test system: TK-10 renal
- measurementNotes: NCI tumour cell line growth inhibition, 48 h
measureName: TGI

Guide cases for TGI, answers given:
What does the record list as TGI for CO[C@H]1Nc2c(ccc(C)c2O)C(=O)N2C=C(/C=C/C(N)=O)C[C@@H]12 ?
7.95 µM

What does the record list as TGI for Nc1ccccc1C(=O)/C=C/c1c(O)ccc2ccccc12 ?
> 100 µM

***
What does the record list as TGI for CCN(CC)CCCCCCNc1cccc2cc(Br)cnc12 ?
3.89 µM

What does the record list as TGI for COC(=O)/C([Se]c1c(C)cc(C)cc1C)=C(/[Se]c1c(C)cc(C)cc1C)C(=O)OC ?
> 100 µM

What does the record list as TGI for CCc1ccc2c(c1)C(=O)c1c-2n(CCCN=[N+]=[N-])c(=O)c2cc([N+](=O)[O-])ccc12 ?
> 50 µM

----------
Below: a set of entries, each annotated with reported GI50.
- System: NCI-H23 lung
- measurementNotes: NCI tumour cell line growth inhibition, 48 h

What does the record list as GI50 for COc1ccc(-c2nccn2-c2ccc(OC)cc2)cc1 ?
22200 nM

What does the record list as GI50 for COc1ccc(-c2nn(-c3cccc(Cl)c3)cc2-c2cc(-c3ccccc3)[nH]c(=O)c2C#N)cc1 ?
2460 nM

What does the record list as GI50 for COc1cc2c(Nc3cc(Cl)c(OC)c(Cl)c3)c(C#N)cnc2cc1OCCCN1CCN(C)CC1 ?
1540 nM

***
What does the record list as GI50 for C=CC(=O)N1CN(C(=O)C=C)CN(C(=O)C=C)C1 ?
2770 nM

What does the record list as GI50 for N[C@H](CCC(=O)N[C@@H](Cc1c[nH]c2ccccc12)C(=O)O)C(=O)O ?
> 100000 nM

What does the record list as GI50 for CCCCCCCCCCNC(=O)CI ?
929 nM

What does the record list as GI50 for COc1cccc(/C=N/[N-]C(=O)c2ccncc2)c1[O-].COc1cccc(/C=N/[N-]C(=O)c2ccncc2)c1[O-].[O]=[U](=[O])([OH2+])[OH2+] ?
3930 nM

What does the record list as GI50 for O=C(Nc1cc(Cl)ccc1O)c1ccc(Nc2ccnc(C(F)(F)F)c2)cc1 ?
2460 nM

What does the record list as GI50 for COc1ccc(-c2cnnn2-c2nonc2-n2cccc2)cc1 ?
246 nM

What does the record list as GI50 for Nc1cc(Br)c(-c2nnc(CCC(=O)c3nc4ccccc4[nH]3)o2)c(Br)c1 ?
3260 nM

----------
- Test system: HCT-15 colon
- measurementNotes: NCI tumour cell line growth inhibition, 48 h
Below: a set of entries, each annotated with reported TGI.

What does the record list as TGI for COc1ccc(S(=O)(=O)N2C(=O)CCC2C(=O)NN)cc1 (stereo unspecified) ?
> 100 µM

What does the record list as TGI for CCOP(=O)(OCC)C(C(=O)OC)C(=O)C(=O)Nc1ccc(Cl)cc1Cl (stereo unspecified) ?
> 100 µM

What does the record list as TGI for COc1cc2c(/C=N\N=C(N)N)c[nH]c2cc1C ?
> 100 µM

What does the record list as TGI for CC12CCC3C(CCC4CC(OC(=O)Cc5ccc(N(CCCl)CCCl)cc5)CCC43C)C1CCC(=O)N2 (stereo unspecified) ?
28.3 µM

What does the record list as TGI for CCc1c[n+]([O-])c(C)cc1[N+](=O)[O-] ?
40.1 µM

Next:
What does the record list as TGI for CC(=O)c1cccn1/C=C(\OC(=O)OC(C)(C)C)c1ccc[nH]1 ?
> 100 µM

----------
Below: a set of entries, each annotated with reported TGI.
- Test system: MCF7 breast
- measurementNotes: NCI tumour cell line growth inhibition, 48 h

What does the record list as TGI for ClC(Cl)=C1C(=C(Cl)Cl)C(Cl)(Cl)C1(Cl)Cl ?
19.2 µM

What does the record list as TGI for CC(=O)Oc1cc(C(F)(F)F)ccc1C(=O)OC1(C)OC(=O)c2ccc(C(F)(F)F)cc2O1 (centres undefined) ?
> 100 µM

What does the record list as TGI for COc1ccc(-c2nn(-c3cccc(Cl)c3)cc2-c2cc(-c3ccccc3)[nH]c(=O)c2C#N)cc1 ?
> 50 µM

What does the record list as TGI for CC(C)=CCC/C(C)=C/COC(C)(C)C1=CCC(C)CC1 (centres undefined) (tested in a mixture with another compound) ?
> 100 µM

What does the record list as TGI for COc1ccc(C(=O)c2cc(OC)c(OC)c(OC)c2)cc1OC ?
> 100 µM

***
What does the record list as TGI for O=C(NCCCN(CCCCN(CCCNC(=O)C(F)(F)F)Cc1ccc2ccccc2c1)Cc1ccc2ccccc2c1)C(F)(F)F ?
4.54 µM

What does the record list as TGI for N#CC(N=Nc1ccc(Cl)cc1)c1nc2ccccc2o1 (centres undefined) ?
> 100 µM

What does the record list as TGI for CCOC(CNCCC(=O)OC)OCC ?
> 10 µM

What does the record list as TGI for COC(=O)c1c2c(cc3c1CCC3)CCC2 ?
> 100 µM

----------
- System: MOLT-4 leukemia
- measurementNotes: NCI tumour cell line growth inhibition, 48 h; in the data active = GI50 below about 0.43 µM; inactive = the rest
I would appreciate it if you answered using one of these outcomes: yes for active, no for inactive

Call for entry COC(=O)c1cc2c(o1)-c1nccc3c1c(nc1ccccc13)C2=O :
no

Would you kindly look at the next entry?
Call for entry N#CCCN1C/C(=C/c2ccc(Br)cc2)C(=O)/C(=C/c2ccc(Br)cc2)C1 :
no

----------
Below: a set of entries, each annotated with reported GI50.
- System: SNB-75 CNS
- measurementNotes: NCI tumour cell line growth inhibition, 48 h

Guide cases for GI50, answers given:
What does the record list as GI50 for Cc1cc(Nc2nc(-c3cn(-c4ccc(Cl)cc4)nn3)nc3ccccc23)n[nH]1 ?
23000 nM

What does the record list as GI50 for Cc1cc(N/N=C/c2ccccn2)nc2ccccc12 ?
461 nM

What does the record list as GI50 for Nc1ccccc1O.O.O=C(O)C1[O][Sb][O]C1C(=O)O (stereo not drawn) ?
24900 nM

What does the record list as GI50 for ClCCN(CCCl)c1ccc(CNc2ccccc2)cc1 ?
3700 nM

***
What does the record list as GI50 for Nc1cc2c(cc1Br)[nH]c(=O)c1ccccc12 ?
2660 nM

What does the record list as GI50 for CC(C)c1[nH]nc2c1N=C(c1ccccc1Cl)c1cc([N+](=O)[O-])ccc1N2 ?
1310 nM

What does the record list as GI50 for CC1(C)CN=C(NN=C(/C=C/c2ccc(C(F)(F)F)cc2)/C=C/c2ccc(C(F)(F)F)cc2)NC1 ?
1560 nM

What does the record list as GI50 for CCCCCCCCCCNC(=O)CI ?
1640 nM

What does the record list as GI50 for O=C(Nc1cc(Nc2ncccc2-c2ncnc3nc[nH]c23)ccc1F)c1cc(C(F)(F)F)cc(C(F)(F)F)c1 ?
1900 nM

----------
- Tested on: HL-60(TB) leukemia
- measurementNotes: NCI tumour cell line growth inhibition, 48 h
measureName: GI50

Guide cases for GI50, answers given:
What does the record list as GI50 for COc1cc2c(Nc3cc(Cl)c(OC)c(Cl)c3)c(C#N)cnc2cc1OCCCN1CCN(C)CC1 ?
1.78 µM

What does the record list as GI50 for COc1cc2c(/C=N\N=C(N)N)c[nH]c2cc1C ?
15.9 µM

What does the record list as GI50 for O=C(/C(=C\c1c(-c2ccccc2)[nH]c2ccccc12)S(=O)(=O)c1ccccc1)c1ccccc1 ?
4.98 µM

What does the record list as GI50 for Nc1ccccc1O.O.O=C(O)C1[O][Sb][O]C1C(=O)O (stereo not given) ?
1.86 µM

What does the record list as GI50 for COc1ccc(-c2nn(-c3cccc(Cl)c3)cc2-c2cc(-c3ccccc3)[nH]c(=O)c2C#N)cc1 ?
21.9 µM

***
What does the record list as GI50 for CC(C)c1[nH]nc2c1N=C(c1ccccc1Cl)c1cc([N+](=O)[O-])ccc1N2 ?
4.99 µM

What does the record list as GI50 for O=C1CCCN1c1ccccc1I(=O)=O ?
> 100 µM

What does the record list as GI50 for Cc1cn(-c2cc(C(=O)Nc3cccc(-n4ccc5c(NC(=O)c6ccccc6)nccc54)c3)cc(C(F)(F)F)c2)cn1 ?
0.451 µM

What does the record list as GI50 for COc1ccc(-c2nccn2-c2ccc(OC)cc2)cc1 ?
14.2 µM

What does the record list as GI50 for C#CCOc1cccc(Nc2ncnc3c(NC(=O)C=C)cccc23)c1 ?
18.9 µM
